Test: Approximate solvent solubility screen of Compound A diacetate salt in 18 solvent systems
Type: physicochemical
Conditions: organic solvent or mixture, thermodynamic from solid; Ethanol; lyophilized material, ambient to ca. 40° C.; read-out: Approximate Solvent Solubility
Endpoint Label: solubility

Recorded solubility for CC(=O)O.CC(=O)O.N=C(N)c1ccc(OCCCCCOc2ccc(C(=N)N)nc2)cc1 [Compound A diacetate salt] , please?
≤ 5000 µg/mL

###

Assay: 7 Day Stability Assessment (XRPD form and HPLC purity after storage)
Type: physicochemical
Conditions: 80° C., 1 week (Form 1: 2 and 7 days); diacetate
Endpoint Label: one-week stability: form by XRPD

CC(=O)O.CC(=O)O.N=C(N)c1ccc(OCCCCCOc2ccc(C(=N)N)nc2)cc1 [Form 1] | no change in form
CC(=O)O.CC(=O)O.N=C(N)c1ccc(OCCCCCOc2ccc(C(=N)N)nc2)cc1 [Form 8] | no change in form
